All values here come from patent US20260242478A1.

experimental.target: Anti-CD28 scFv (VH - linker 1 - VL) (biotinylated (site not stated))
Sequence (scFv, as listed by the source): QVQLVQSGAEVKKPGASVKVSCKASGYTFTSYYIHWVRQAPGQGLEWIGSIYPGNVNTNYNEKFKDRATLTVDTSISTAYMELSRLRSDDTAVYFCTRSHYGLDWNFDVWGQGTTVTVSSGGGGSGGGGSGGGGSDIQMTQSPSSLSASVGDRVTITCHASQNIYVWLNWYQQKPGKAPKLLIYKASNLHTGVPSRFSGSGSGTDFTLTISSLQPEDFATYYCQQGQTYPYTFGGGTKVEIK
assay.remarks: clonal phage ELISA on biotinylated anti-CD28 scFv captured on neutravidin plates, anti-M13 HRP detection;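 note: crude phage supernatants were used, and before phage were added the wells were pretreated with blocking buffer, either alone or with soluble CD28 protein, without washing in between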
measured.quantity: CD28 scFv signal

>  <binder>
MDWCPRYLWDACFF (tested as crude clonal phage supernatant) [Phage-130]

>  <measured.quantity>
CD28 scFv signal

>  <measured>
2.34

$$$$
>  <binder>
MDWCPTYLWFECFN (tested as crude clonal phage supernatant) [Phage-132]

>  <measured.quantity>
CD28 scFv signal

>  <measured>
2.33

$$$$
>  <binder>
MDWCPIHLWNECFA (tested as crude clonal phage supernatant) [Phage-123]

>  <measured.quantity>
CD28 scFv signal

>  <measured>
2.4

$$$$
